Provenance of the data: PubChem BioAssay (NCI)

experiment: NCI Yeast Anticancer Drug Screen. Data for the cln2 rad14 strain (AID 165);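 note: 0% = growth equal to vehicle treated cultures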; settings: S. cerevisiae cln2 rad14 strain, at 50.0 µM, active compounds read high
This is part of a sample that, as a whole, favours compounds with a hit. Of some 79,000 tested, about 15% had one in any assay.
property.label: growth inhibition (%)
Entry rule: numbers only, all in %.

The cases that follow already have their growth inhibition on record.
>>> value_reported("O=C1CC2OCC=C3CN4CCC56c7ccccc7N1C5C2C3CC46O (stereo not drawn)")
-1.2
>>> value_reported("Cc1cccc(OCC2=NCCN2)c1C")
-57.1
>>> value_reported("Cc1ccc(S(=O)(=O)/N=[Se](\\C)c2ccccc2)cc1 (stereo not drawn)")
60.9
>>> value_reported("SCc1c(Cl)c(Cl)c(Cl)c(Cl)c1Cl.[Hg]")
-64.8
>>> value_reported("NCCN.O=C([O-])C(=O)[O-].O=C([O-])C(=O)[O-].[Co+3].[K+]")
16.8
>>> value_reported("CNc1cc(Cl)c(C#N)c(Cl)c1")
-39.2
>>> value_reported("O=P(O)(O)CCCCP(=O)(O)O.[Zn+2]")
-5.1
>>> value_reported("CN1C2CCC1CC(=O)C2")
-8.35
>>> value_reported("O=[N+]([O-])c1cc(Cl)ccc1S(=O)(=O)F")
99.2
>>> value_reported("CC1=C(CC/C(C)=C/CCC2(C)CCC([C@H](C)C(=O)O)OO2)C(C)(C)CCC1 (stereo partly drawn) (tested in a mixture with another compound)")
90.5

Task item: Please look up its growth inhibition: O=C(c1ccc([N+](=O)[O-])cc1)C1NC1c1ccccc1 (stereo not drawn)
Reply: -2.65

Task item: Ok, now CCOP(=O)(CN(CCO)CCO)OCC
Reply: 0

Task item: Ok, now CNP1(=O)OC(c2ccccc2)=CCN1CCCl (stereo not drawn)
Reply: -30.3

Task item: Ok, now CC(C)[CH2][Sn](=[O])[c]1ccccc1
Reply: 94.8

Task item: Ok, now CC12CCC(OC3OC(CO)C(OC4OC(CO)C(O)C(O)C4O)C(O)C3O)CC1CCC1C2CCC2(C)C(C3=CC(=O)OC3)CCC12O (stereo not drawn)
Reply: -7.95

Task item: Ok, now O=C(CCl)Nc1ccc(Cl)cc1
Reply: 40.9

Task item: Ok, now Nc1nc2ncnc(N)c2nc1-c1ccc(N(CCCl)CCCl)cc1
Reply: 16.4

Task item: Ok, now C[C@]12CCNC(=O)C=C1CC[C@@H]1C2CC[C@@]2(C)C1CC[C@@H]2OC(=O)COc1ccc(N(CCCl)CCCl)cc1 (stereo partly drawn)
Reply: 60

Task item: Ok, now O=C(O)c1cc(Cc2ccc(O)c(C(=O)O)c2)ccc1O (tested in a mixture with another compound)
Reply: 14.1

Task item: Ok, now O=C(O)CCC(=O)O.[Ni]
Reply: -36.5

Task item: Ok, now Cc1ccc(O)c(CN2CCN(Cc3cc(C)ccc3O)CC2)c1
Reply: -2.15

Task item: Ok, now O=C1C2C(C(=O)N1c1ccc(Cl)c(Cl)c1)C1(Cl)C(Cl)=C(Cl)C2(Cl)C1(Cl)Cl (stereo not drawn)
Reply: 86.5

Task item: Ok, now C/C=C/COC(=O)CO[N+](=O)[O-]
Reply: -12.8

* * *

growth inhibition values for the molecules below.
test: NCI Yeast Anticancer Drug Screen. Data for the sgs1 mgt1 strain (AID 161);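 note: 0% = growth of cultures given vehicle only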; details: S. cerevisiae sgs1 mgt1 strain, at 50.0 µM, active compounds read high
This is part of a sample that, as a whole, favours compounds with a hit. Of some 79,000 tested, about 15% had one in any assay.
Entry rule: numbers only, all in %.

The cases that follow already have their growth inhibition on record.
>>> value_reported("O=C(Cc1ccccc1)Nc1ccc(Cl)cc1C(=O)c1ccccc1")
40.1
>>> value_reported("O=[As](O)(O)c1cc(N=Nc2ccc(-c3ccc(N=Nc4cc([As](=O)(O)O)c(O)cc4O)cc3)cc2)c(O)cc1O")
33.2
>>> value_reported("O=C(CBr)OCC(Br)CBr (stereo not given)")
99.3
>>> value_reported("NC(=O)Cc1ccc([As]=O)cc1 (stereo not given)")
9.05
>>> value_reported("O=C(CBr)Nc1ccccc1")
98.4
>>> value_reported("O=C1C(F)=C(N2CC2)C(=O)C(N2CCOCC2)=C1N1CC1")
89.8
>>> value_reported("O=C(COc1ccc(Cl)c(Cl)c1)Nc1ccc[n+](Cc2c(Cl)cccc2S(=O)(=O)F)c1")
-17.7
>>> value_reported("O=C1NC(=O)C(CC(Br)CBr)(c2ccccc2)C(=O)N1 (stereo not given)")
20.8
>>> value_reported("OCC1C(/C=C/c2ccoc2)ON2CCCC12 (stereo not given)")
-8.05
>>> value_reported("O=C(O)CC1NCc2cc3ccccc3nc21 (stereo not given)")
-17.2

Task item: Please look up its growth inhibition: IC(I)=C(I)I
Reply: 91.9

Task item: Ok, now C[N+](C)(C)Cc1ccc2ccccc2c1Br
Reply: 10.2

Task item: Ok, now Cc1ccc2[nH]c(=S)n(-c3ccc(Cl)cc3)c(=O)c2c1
Reply: 29.9

Task item: Ok, now C[C@]12Cc3cn4ncnc4nc3CC1CC[C@@H]1[C@@H]2CC[C@]2(C)C(O)CC[C@@H]12 (stereo not given in full)
Reply: 98

Task item: Ok, now O=C1/C(=C\c2ccccc2)N2CCC1CC2
Reply: -1.65

Task item: Ok, now CC(C)CC[CH2][Pb]([CH2]CCC(C)C)([CH2]CCC(C)C)[O]C(=O)C(Cl)(Cl)Cl
Reply: 98.4

Task item: Ok, now CC(=O)C(C(C)=O)C(C)=O.CC(=O)C(C(C)=O)C(C)=O.CC(=O)C(C(C)=O)C(C)=O.[Cr]
Reply: 11.2

Task item: Ok, now NC(Cc1ccc(Cl)cc1)P(=O)(O)O (stereo not given)
Reply: -6.75

Task item: Ok, now [Be]=[Se]
Reply: -2.9

Task item: Ok, now COC(=O)C1C(OC(=O)C(Cl)(c2ccccc2)c2ccccc2)CC2CCC1N2C (stereo not given)
Reply: -19.6

* * *

assay: NCI Yeast Anticancer Drug Screen. Data for the mec2-1 strain (AID 157); conditions: S. cerevisiae mec2-1 strain, at 50.0 µM, active compounds read high
This is part of a sample that, as a whole, favours compounds with a hit. Of some 79,000 tested, about 15% had one in any assay. Calls of active or inactive are those of the source. No stated cut-off is given here; in the data, active means growth inhibition above about 70%; inactive means the rest.
property.label: growth inhibition

The cases that follow already have their growth inhibition on record.
>>> value_reported("Nc1ccc(/C=C/C(=O)Nc2ccc(S(=O)(=O)F)cc2)cc1")
"96.2% (active)"
>>> value_reported("C/C(=N\\N=C(\\[Se])N(C)C)c1ccccn1")
"89.9% (active)"
>>> value_reported("CCOC(CNCc1cccnc1)OCC")
"-10.6% (inactive)"
>>> value_reported("C[C@]12Cc3sc(N)nc3C[C@@H]1CC[C@@H]1[C@@H]2CC[C@@]2(C)[C@H]1CC[C@]2(C)O")
"-18.4% (inactive)"
>>> value_reported("CC1(C)N=C(N)N=C(N)N1c1ccc(CCc2ccc(S(=O)(=O)F)cc2)cc1")
"7% (inactive)"
>>> value_reported("CC(=O)[O-].CC(=O)[O-].O=C(N/N=C/c1cc(Cl)cc(Cl)c1[OH2+])c1ccncc1.[Zn+2]")
"48.4% (inactive)"
>>> value_reported("N#CC1(c2ccccc2)CCCC1")
"8.25% (inactive)"
>>> value_reported("COC(=O)[CH2][Sn]([CH2]C(=O)OC)([CH]1CCCCC1)[CH]1CCCCC1")
"97.2% (active)"

Task item: Please look up its growth inhibition: O=C1CCP(c2ccccc2)(c2ccccc2)(c2ccccc2)O1
Reply: 11.8% (inactive)

Task item: Ok, now CCN(CCCl)c1cc(C(N)=O)c([N+](=O)[O-])cc1[N+](=O)[O-]
Reply: -8.7% (inactive)

Task item: Ok, now C[C@]12Cc3cn4ncnc4nc3CC1CC[C@@H]1[C@@H]2CC[C@]2(C)C(O)CC[C@@H]12 (stereo partly specified)
Reply: 95% (active)

Task item: Ok, now C=CCc1cc(C=C(C#N)C#N)cc(OC)c1O
Reply: -2.85% (inactive)

Task item: Ok, now COc1cc(C2c3cc4c(cc3C(O)[C@H]3COC(=O)C23)OCO4)cc(OC)c1O (stereo partly specified)
Reply: -50.8% (inactive)

Task item: Ok, now O=C1C2C(C(=O)N1c1ccc(O)cc1)C1(Cl)C(Cl)=C(Cl)C2(Cl)C1(Cl)Cl (stereo unspecified)
Reply: -11.8% (inactive)

Task item: Ok, now CCC[CH2][Sn]1([CH2]CCC)[O]C(=O)CN=Cc2ccccc2[O]1
Reply: 92% (active)

Task item: Ok, now c1cnc[c]([Hg][c]2cccnc2)c1
Reply: 56.5% (inactive)

* * *

test: NCI Yeast Anticancer Drug Screen. Data for the sgs1 mgt1 strain (AID 161);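 note: 0% = growth of cultures given vehicle only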; conditions: S. cerevisiae sgs1 mgt1 strain, at 50.0 µM, active compounds read high
About 79,000 compounds went through this panel and 15% of them were active in at least one assay; those are over-represented in the sample as a whole.
property.label: growth inhibition (%)
Entry rule: numbers only, all in %.

The cases that follow already have their growth inhibition on record.
>>> value_reported("CCC[CH2][Sn]1([CH2]CCC)[O]c2ccccc2[O]1")
90.5
>>> value_reported("CCOP(=O)(OCC)C(C)(C)OC(=O)NC(F)(F)F")
-2.25

Task item: Please look up its growth inhibition: CCOC(=O)C1Cc2ccc(OC)cc2C2=CC(=O)CCC21 (stereo unspecified)
Reply: -9.4

Task item: Ok, now CN(C)P(=O)(N(C)C)N1CCCCCC1
Reply: 0

Task item: Ok, now CC(=O)c1cc(CN(CCCl)CCCl)c(O)c(CN(CCCl)CCCl)c1O
Reply: 96.2

Task item: Ok, now N#Cc1cccc([N+](=O)[O-])c1
Reply: -26.6
